Origin of the recorded values: patent US20120135923A1

- tested-system: T1, hMC5-R (human, UniProt P33032 1-325)
- T1 construct: whole, on cells; Assayed as membranes of CHO-K1 cells expressing the receptor; also called hMC-R receptor subtype 5; melanocortin-5 receptor (MC5-R)
- T1 sequence (P33032 whole entry): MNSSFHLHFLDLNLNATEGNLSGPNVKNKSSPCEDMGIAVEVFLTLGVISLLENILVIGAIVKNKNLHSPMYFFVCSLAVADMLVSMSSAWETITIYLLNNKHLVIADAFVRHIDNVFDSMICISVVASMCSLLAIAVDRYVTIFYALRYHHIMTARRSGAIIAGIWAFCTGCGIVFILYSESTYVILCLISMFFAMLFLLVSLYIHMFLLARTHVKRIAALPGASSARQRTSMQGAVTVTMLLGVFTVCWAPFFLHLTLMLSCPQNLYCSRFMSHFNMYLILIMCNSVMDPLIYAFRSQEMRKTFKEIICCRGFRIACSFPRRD
- assay-protocol: competition with [125I]-NDP-α-MSH, CHO-K1 membranes
Bridge positions count the residues as written; N and C are the ends. Square brackets hold non-standard residues; d marks the D form. Cha = N[C@@H](CC1CCCCC1)C(=O)O; Nle = CCCC[C@H](N)C(=O)O; Ahx = NCCCCCC(=O)O; GABA = NCCCC(=O)O; βAla = NCCC(=O)O
Hi! Just check whether Ki is below 9 nM. Below gives 1, equal or above gives 0.

binder="Ac-[Nle]CH[dF]RW[Ahx]C-NH2 (disulfide 2-8) [Ac-Nle-c(Cys-His-D-Phe-Arg-Trp-Ahx-Cys)-NH2]" answer_label=1
binder="Ac-LCH[dF]RW[GABA]C-NH2 (disulfide 2-8) [Ac-Leu-c(Cys-His-D-Phe-Arg-Trp-Gaba-Cys)-NH2]" answer_label=1
binder="Ac-[Cha]DH[dF]RW[GABA]K-NH2 (lactam 2-8; SMILES CC(=O)N[C@@H](CC1CCCCC1)C(=O)N[C@H]1CC(=O)NCCCC[C@@H](C(N)=O)NC(=O)CCCNC(=O)[C@H](Cc2c[nH]c3ccccc23)NC(=O)[C@H](CCCNC(=N)N)NC(=O)[C@@H](Cc2ccccc2)NC(=O)[C@H](Cc2c[nH]cn2)NC1=O) [Ac-Cha-c(Asp-His-D-Phe-Arg-Trp-Gaba-Lys)-NH2]" answer_label=0
binder="Ac-[Nle]CH[dF]R[dW][βAla]C-NH2 (disulfide 2-8; SMILES CCCC[C@H](NC(C)=O)C(=O)N[C@H]1CSSC[C@@H](C(N)=O)NC(=O)CCNC(=O)[C@@H](Cc2c[nH]c3ccccc23)NC(=O)[C@H](CCCNC(=N)N)NC(=O)[C@@H](Cc2ccccc2)NC(=O)[C@H](Cc2c[nH]cn2)NC1=O) [Ac-Nle-c(Cys-His-D-Phe-Arg-D-Trp-β-Ala-Cys)-NH2]" answer_label=0
binder="Ac-VCH[dF]RW[GABA]C-NH2 (disulfide 2-8; SMILES CC(=O)N[C@H](C(=O)N[C@H]1CSSC[C@@H](C(N)=O)NC(=O)CCCNC(=O)[C@H](Cc2c[nH]c3ccccc23)NC(=O)[C@H](CCCNC(=N)N)NC(=O)[C@@H](Cc2ccccc2)NC(=O)[C@H](Cc2c[nH]cn2)NC1=O)C(C)C) [Ac-Val-c(Cys-His-D-Phe-Arg-Trp-Gaba-Cys)-NH2]" answer_label=1
binder="Ac-[dR]DH[dF]RWAK-NH2 (lactam 2-8) [Ac-D-Arg-c(Asp-His-D-Phe-Arg-Trp-Ala-Lys)-NH2]" answer_label=0
